B1: NLV3 TCR beta chain (CDR3β only) (parent)
chain: ASSPTGGSPSPLH
partner: MLVPMVATV

Variants of: B1
ASSAY INFO: T-Switch: Jurkat TCRβ−/− cells expressing a CDR3 saturation-mutagenesis library, stained with two peptide-HLA-A*02:01 tetramers (original and novel peptide) plus anti-CD3, FACS-sorted into four gates, gDNA sequenced
RUN CONDITIONS: with HLA-A*02:01 with peptide … (NLV 3-1, the original bait), tetramers 1 µg/mL, 30 min on ice, DP and SW gates expanded about 10 days between rounds ('two to three rounds of selection' in the Methods), gate SP: higher = more of the variant in the gate that binds the original peptide and not the novel one = retained original binding. Fold enrichment of the CDR3 variant in one FACS gate of a two-tetra, unresolved parent, parent is a CDR3 fragment, scale: fold enrichment, numbering: sequential-on-construct, sequence …
ASSAY READOUT: enrichment

{"MUTATION KEY": "[…] (CDR3 as printed); H13F derived by comparing it with the table's wild-type CDR3 ASSPTGGSPSPLH", "VALUE REPORTED": 4.3}
{"MUTATION KEY": "[…] (CDR3 as printed); T5F derived by comparing it with the table's wild-type CDR3 ASSPTGGSPSPLH", "VALUE REPORTED": 12.8}
{"MUTATION KEY": "[…] (CDR3 as printed); P9F derived by comparing it with the table's wild-type CDR3 ASSPTGGSPSPLH", "VALUE REPORTED": 0}
{"MUTATION KEY": "[…] (CDR3 as printed); P9Q derived by comparing it with the table's wild-type CDR3 ASSPTGGSPSPLH", "VALUE REPORTED": 0}
{"MUTATION KEY": "[…] (CDR3 as printed); P9Y derived by comparing it with the table's wild-type CDR3 ASSPTGGSPSPLH", "VALUE REPORTED": 0}
{"MUTATION KEY": "[…] (CDR3 as printed); S10W derived by comparing it with the table's wild-type CDR3 ASSPTGGSPSPLH", "VALUE REPORTED": 0}
{"MUTATION KEY": "[…] (CDR3 as printed); S8V derived by comparing it with the table's wild-type CDR3 ASSPTGGSPSPLH", "VALUE REPORTED": 1.71}
{"MUTATION KEY": "[…] (CDR3 as printed); G6I derived by comparing it with the table's wild-type CDR3 ASSPTGGSPSPLH", "VALUE REPORTED": 0}
{"MUTATION KEY": "[…] (CDR3 as printed); P9S derived by comparing it with the table's wild-type CDR3 ASSPTGGSPSPLH", "VALUE REPORTED": 0.568}
{"MUTATION KEY": "[…] (CDR3 as printed); T5V derived by comparing it with the table's wild-type CDR3 ASSPTGGSPSPLH", "VALUE REPORTED": 19.2}
{"MUTATION KEY": "[…] (CDR3 as printed); L12Y derived by comparing it with the table's wild-type CDR3 ASSPTGGSPSPLH", "VALUE REPORTED": 0}
{"MUTATION KEY": "[…] (CDR3 as printed); P11H derived by comparing it with the table's wild-type CDR3 ASSPTGGSPSPLH", "VALUE REPORTED": 0}
{"MUTATION KEY": "[…] (CDR3 as printed); S8M derived by comparing it with the table's wild-type CDR3 ASSPTGGSPSPLH", "VALUE REPORTED": 0}
{"MUTATION KEY": "[…] (CDR3 as printed); S3M derived by comparing it with the table's wild-type CDR3 ASSPTGGSPSPLH", "VALUE REPORTED": 0}
{"MUTATION KEY": "[…] (CDR3 as printed); P11V derived by comparing it with the table's wild-type CDR3 ASSPTGGSPSPLH", "VALUE REPORTED": 0}
{"MUTATION KEY": "[…] (CDR3 as printed); S2H derived by comparing it with the table's wild-type CDR3 ASSPTGGSPSPLH", "VALUE REPORTED": 0.863}
{"MUTATION KEY": "[…] (CDR3 as printed); P9R derived by comparing it with the table's wild-type CDR3 ASSPTGGSPSPLH", "VALUE REPORTED": 0}
{"MUTATION KEY": "[…] (CDR3 as printed); S3G derived by comparing it with the table's wild-type CDR3 ASSPTGGSPSPLH", "VALUE REPORTED": 9.71}
{"MUTATION KEY": "[…] (CDR3 as printed); A1D derived by comparing it with the table's wild-type CDR3 ASSPTGGSPSPLH", "VALUE REPORTED": 0}
{"MUTATION KEY": "[…] (CDR3 as printed); S3E derived by comparing it with the table's wild-type CDR3 ASSPTGGSPSPLH", "VALUE REPORTED": 0}
{"MUTATION KEY": "[…] (CDR3 as printed); L12E derived by comparing it with the table's wild-type CDR3 ASSPTGGSPSPLH", "VALUE REPORTED": 0}
{"MUTATION KEY": "[…] (CDR3 as printed); S3L derived by comparing it with the table's wild-type CDR3 ASSPTGGSPSPLH", "VALUE REPORTED": 0}
{"MUTATION KEY": "[…] (CDR3 as printed); S2M derived by comparing it with the table's wild-type CDR3 ASSPTGGSPSPLH", "VALUE REPORTED": 0}
{"MUTATION KEY": "[…] (CDR3 as printed); S3R derived by comparing it with the table's wild-type CDR3 ASSPTGGSPSPLH", "VALUE REPORTED": 0}
{"MUTATION KEY": "[…] (CDR3 as printed); G6V derived by comparing it with the table's wild-type CDR3 ASSPTGGSPSPLH", "VALUE REPORTED": 0}
{"MUTATION KEY": "[…] (CDR3 as printed); L12K derived by comparing it with the table's wild-type CDR3 ASSPTGGSPSPLH", "VALUE REPORTED": 0}
{"MUTATION KEY": "[…] (CDR3 as printed); G7K derived by comparing it with the table's wild-type CDR3 ASSPTGGSPSPLH", "VALUE REPORTED": 0}
{"MUTATION KEY": "[…] (CDR3 as printed); S10Q derived by comparing it with the table's wild-type CDR3 ASSPTGGSPSPLH", "VALUE REPORTED": 5.52}
{"MUTATION KEY": "[…] (CDR3 as printed); S8F derived by comparing it with the table's wild-type CDR3 ASSPTGGSPSPLH", "VALUE REPORTED": 0}
{"MUTATION KEY": "[…] (CDR3 as printed); H13D derived by comparing it with the table's wild-type CDR3 ASSPTGGSPSPLH", "VALUE REPORTED": 8.55}
{"MUTATION KEY": "[…] (CDR3 as printed); T5M derived by comparing it with the table's wild-type CDR3 ASSPTGGSPSPLH", "VALUE REPORTED": 7.93}
{"MUTATION KEY": "[…] (CDR3 as printed); A1P derived by comparing it with the table's wild-type CDR3 ASSPTGGSPSPLH", "VALUE REPORTED": 0}
{"MUTATION KEY": "[…] (CDR3 as printed); T5R derived by comparing it with the table's wild-type CDR3 ASSPTGGSPSPLH", "VALUE REPORTED": 0}
{"MUTATION KEY": "[…] (CDR3 as printed); G6D derived by comparing it with the table's wild-type CDR3 ASSPTGGSPSPLH", "VALUE REPORTED": 0.39}
{"MUTATION KEY": "[…] (CDR3 as printed); P11C derived by comparing it with the table's wild-type CDR3 ASSPTGGSPSPLH", "VALUE REPORTED": 6.3}
{"MUTATION KEY": "[…] (CDR3 as printed); S10C derived by comparing it with the table's wild-type CDR3 ASSPTGGSPSPLH", "VALUE REPORTED": 0}
{"MUTATION KEY": "[…] (CDR3 as printed); P9N derived by comparing it with the table's wild-type CDR3 ASSPTGGSPSPLH", "VALUE REPORTED": 0}
{"MUTATION KEY": "[…] (CDR3 as printed); P11Y derived by comparing it with the table's wild-type CDR3 ASSPTGGSPSPLH", "VALUE REPORTED": 1.78}
{"MUTATION KEY": "[…] (CDR3 as printed); G6K derived by comparing it with the table's wild-type CDR3 ASSPTGGSPSPLH", "VALUE REPORTED": 0}
{"MUTATION KEY": "[…] (CDR3 as printed); S2P derived by comparing it with the table's wild-type CDR3 ASSPTGGSPSPLH", "VALUE REPORTED": 0}
{"MUTATION KEY": "[…] (CDR3 as printed); S8G derived by comparing it with the table's wild-type CDR3 ASSPTGGSPSPLH", "VALUE REPORTED": 0}
{"MUTATION KEY": "[…] (CDR3 as printed); S10F derived by comparing it with the table's wild-type CDR3 ASSPTGGSPSPLH", "VALUE REPORTED": 0}
{"MUTATION KEY": "[…] (CDR3 as printed); S10K derived by comparing it with the table's wild-type CDR3 ASSPTGGSPSPLH", "VALUE REPORTED": 0}
{"MUTATION KEY": "[…] (CDR3 as printed); P9H derived by comparing it with the table's wild-type CDR3 ASSPTGGSPSPLH", "VALUE REPORTED": 0}
{"MUTATION KEY": "[…] (CDR3 as printed); H13W derived by comparing it with the table's wild-type CDR3 ASSPTGGSPSPLH", "VALUE REPORTED": 8.46}
{"MUTATION KEY": "[…] (CDR3 as printed); P9L derived by comparing it with the table's wild-type CDR3 ASSPTGGSPSPLH", "VALUE REPORTED": 1.13}

This collection of values is drawn from paper PMC13397619.
